Listing of recorded inhibition at 0.37 µM by entry.
Molecular target: HIV-1 protease (Human immunodeficiency virus type 1 group M subtype B)
Assay: biochemical
Conditions: read-out: HIV-1 Protease % Inhib, dose 0.370 uM
TEST_READOUT: inhibition at 0.37 µM (%)

# COMPOUND, TEST_TARGET, TEST_READOUT, TEST_RESULT
rows = [
    ("O=c1oc2c(c(O)c1C(c1cccc(NS(=O)(=O)CCCCl)c1)C1CC1)CCCCCC2 (stereo not shown)", "HIV-1 protease (Human immunodeficiency virus type 1 group M subtype B)", "inhibition at 0.37 µM", 86.9),
    ("O=C(CCn1ccc2ccccc21)Nc1cccc(C(c2c(O)c3c(oc2=O)CCCCC3)C2CC2)c1 (stereo not shown)", "HIV-1 protease (Human immunodeficiency virus type 1 group M subtype B)", "inhibition at 0.37 µM", 43.3),
    ("Cc1ccccc1S(=O)(=O)Nc1cccc(C(c2c(O)c3c(oc2=O)CCCCCC3)C2CC2)c1 (stereo not shown)", "HIV-1 protease (Human immunodeficiency virus type 1 group M subtype B)", "inhibition at 0.37 µM", 83.8),
    ("O=C(Cc1ccccc1)Nc1cccc(C(c2c(O)c3c(oc2=O)CCCCCC3)C2CC2)c1 (stereo not shown)", "HIV-1 protease (Human immunodeficiency virus type 1 group M subtype B)", "inhibition at 0.37 µM", 44.1),
    ("O=c1oc2c(c(O)c1C(c1ccccc1)C1CC1)CCCCCC2CC1CC1 (stereo not shown)", "HIV-1 protease (Human immunodeficiency virus type 1 group M subtype B)", "inhibition at 0.37 µM", 74.9),
    ("O=c1oc2c(c(O)c1C(c1cccc(NS(=O)(=O)c3cccc(CO)c3)c1)C1CC1)CCCCCC2 (stereo not shown)", "HIV-1 protease (Human immunodeficiency virus type 1 group M subtype B)", "inhibition at 0.37 µM", 97.2),
    ("Cc1ccc(S(=O)(=O)n2cncc2C[C@H](NC(=O)OC(C)(C)C)C(=O)Nc2cccc(C(c3c(O)c4c(oc3=O)CCCCCC4)C3CC3)c2)cc1 (stereo partly shown)", "HIV-1 protease (Human immunodeficiency virus type 1 group M subtype B)", "inhibition at 0.37 µM", 86.5),
]
